All figures here come from ChEMBL document CHEMBL4371071.

Organism: Homo sapiens
assay-explanation: Selectivity ratio of Ki for displacement of [3H]NMS from human M2 AChR expressed in CHO cell membranes to Ki for displacement of [3H]NMS from human M3 AChR expressed in CHO cell membranes
experimental-readout: Ratio Ki

>>> df
                                   molecule  val
0  O=C(OCCCc1ccc(Cl)c(Cl)c1)N(c1ccccc1)C1CN2CCC1CC2 (stereo not given)  4.7
1  COc1ccc(COC(=O)N(c2ccccc2)C2CN3CCC2CC3)cc1F (stereo not given)  1.8
2  O=C(OCc1ccccc1)N(c1ccccc1)C1CN2CCC1CC2 (stereo not given)  1.2
3  O=C(OCc1ccc2c(c1)OCO2)N(c1ccccc1)C1CN2CCC1CC2 (stereo not given)  1.7
4  COc1ccc(CCN(C(=O)OC2CN3CCC2CC3)c2ccccc2)cc1OC (racemic)  5.7

====

Species on record: Homo sapiens
assay-explanation: Selectivity ratio of Ki for displacement of [3H]NMS from human M2 AChR expressed in CHO cell membranes to Ki for displacement of [3H]NMS from human M3 AChR expressed in CHO cell membranes
experimental-readout: Ratio Ki

In [3]: df
Out[3]:
                                   molecule  experimental_readout   val
0  O=C(OC1CN2CCC1CC2)N(CCc1ccc(F)cc1)c1ccccc1 (racemic)              Ratio Ki     5
1  COc1ccc(CCN(C(=O)OC2CN3CCC2CC3)c2ccccc2)cc1 (racemic)              Ratio Ki  17.1
2  Cc1ccc(COC(=O)N(c2ccccc2)C2CN3CCC2CC3)cc1F (centres undefined)              Ratio Ki   1.3
3  O=C(OCc1ccc(Cl)c(Cl)c1)N(c1ccccc1)C1CN2CCC1CC2 (centres undefined)              Ratio Ki   3.3

====

Recorded measurements of Ki, one per entry
target-entity: Muscarinic acetylcholine receptor M1 (Homo sapiens)
Sequence (P11229 whole entry): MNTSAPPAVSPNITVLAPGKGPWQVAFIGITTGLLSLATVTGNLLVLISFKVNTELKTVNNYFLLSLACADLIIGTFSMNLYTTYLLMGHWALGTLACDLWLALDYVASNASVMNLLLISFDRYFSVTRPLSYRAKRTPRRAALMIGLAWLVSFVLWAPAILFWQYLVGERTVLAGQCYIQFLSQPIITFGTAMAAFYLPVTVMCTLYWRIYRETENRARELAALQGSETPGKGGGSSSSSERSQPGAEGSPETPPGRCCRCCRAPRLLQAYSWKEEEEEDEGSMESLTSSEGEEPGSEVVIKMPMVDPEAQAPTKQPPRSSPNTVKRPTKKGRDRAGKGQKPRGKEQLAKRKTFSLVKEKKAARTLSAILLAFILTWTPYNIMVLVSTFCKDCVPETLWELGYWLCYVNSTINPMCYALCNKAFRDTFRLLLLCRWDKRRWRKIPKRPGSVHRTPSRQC
experimental-readout: Ki (nM)

>>> df
                                    compound  experimental_readout   val
 0  O=C(OC1CN2CCC1CC2)N(CCc1ccc(F)cc1)c1ccccc1 (racemic)                    Ki     2
 1  O=C(OCCCc1ccccc1)N(c1ccccc1)C1CN2CCC1CC2 (configuration not stated)                    Ki   780
 2  O=C(OCc1ccccc1)N(c1ccccc1)C1CN2CCC1CC2 (configuration not stated)                    Ki   190
 3  COc1ccc(COC(=O)N(c2ccccc2)C2CN3CCC2CC3)cc1OC (configuration not stated)                    Ki   770
 4  O=C(OCc1ccc2c(c1)OCO2)N(c1ccccc1)C1CN2CCC1CC2 (configuration not stated)                    Ki    30
 5  COc1ccc(CCOC(=O)N(c2ccccc2)C2CN3CCC2CC3)cc1 (configuration not stated)                    Ki   760
 6  COc1ccc(CCN(C(=O)OC2CN3CCC2CC3)c2ccccc2)cc1OC (racemic)                    Ki    95
 7  Cc1ccc(COC(=O)N(c2ccccc2)C2CN3CCC2CC3)cc1F (configuration not stated)                    Ki    40
 8  Cc1ccc(CCCOC(=O)N(c2ccccc2)C2CN3CCC2CC3)cc1F (configuration not stated)                    Ki   200
 9  COc1ccc(CCCOC(=O)N(c2ccccc2)C2CN3CCC2CC3)cc1 (configuration not stated)                    Ki   590
10  COc1ccc(CCCOC(=O)N(c2ccccc2)C2CN3CCC2CC3)cc1OC (configuration not stated)                    Ki  1460
11  O=C(OCCCc1ccc(F)c(F)c1)N(c1ccccc1)C1CN2CCC1CC2 (configuration not stated)                    Ki   300
12  COc1ccc(CCOC(=O)N(c2ccccc2)C2CN3CCC2CC3)cc1OC (configuration not stated)                    Ki  6980
13  O=C(OCCCc1ccc(Cl)c(Cl)c1)N(c1ccccc1)C1CN2CCC1CC2 (configuration not stated)                    Ki   170
14  O=C(OCCc1ccc(Cl)c(Cl)c1)N(c1ccccc1)C1CN2CCC1CC2 (configuration not stated)                    Ki   370
15  COc1ccc(COC(=O)N(c2ccccc2)C2CN3CCC2CC3)cc1F (configuration not stated)                    Ki    70
16  COc1ccc(CCN(C(=O)OC2CCN(C)CC2)c2ccccc2)cc1                    Ki   280
17  COc1ccc(CCN(C(=O)OC2C[C@H]3CC[C@H](C2)N3C)c2ccccc2)cc1OC (some centres not stated)                    Ki  1870
18  O=C(OCc1ccc(Cl)c(Cl)c1)N(c1ccccc1)C1CN2CCC1CC2 (configuration not stated)                    Ki    60
19  CN1CCC(OC(=O)N(CCc2ccc(F)cc2)c2ccccc2)CC1                    Ki    70
20  COc1ccc(CCCOC(=O)N(c2ccccc2)C2CN3CCC2CC3)cc1F (configuration not stated)                    Ki   430
21  COc1ccc(CCN(C(=O)OC2CCCN(C)C2)c2ccccc2)cc1 (configuration not stated)                    Ki   690

====

target-entity: Muscarinic acetylcholine receptor M2 (Homo sapiens)
Sequence (P08172 whole entry): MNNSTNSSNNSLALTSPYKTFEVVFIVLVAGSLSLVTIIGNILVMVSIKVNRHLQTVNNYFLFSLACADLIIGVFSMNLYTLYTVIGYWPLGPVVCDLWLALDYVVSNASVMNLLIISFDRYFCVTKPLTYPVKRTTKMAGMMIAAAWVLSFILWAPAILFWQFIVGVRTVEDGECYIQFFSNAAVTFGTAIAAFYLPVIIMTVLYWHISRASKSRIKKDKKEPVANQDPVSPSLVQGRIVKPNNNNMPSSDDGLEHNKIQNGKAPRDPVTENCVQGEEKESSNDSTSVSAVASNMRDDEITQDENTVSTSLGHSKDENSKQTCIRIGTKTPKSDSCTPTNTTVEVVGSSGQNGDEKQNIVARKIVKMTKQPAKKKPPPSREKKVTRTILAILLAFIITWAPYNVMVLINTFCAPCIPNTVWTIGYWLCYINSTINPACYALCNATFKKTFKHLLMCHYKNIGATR
pKi: −log10 of the molar value.
pKi: recorded values
experimental-readout: pKi

>>> print(df.to_string())
                                   compound   val
0  O=C(OCc1ccc(Cl)c(Cl)c1)N(c1ccccc1)C1CN2CCC1CC2 (centres undefined)  6.66
1  COc1ccc(CCN(C(=O)OC2CN3CCC2CC3)c2ccccc2)cc1OC (racemic)  6.46
2  O=C(OCc1ccccc1)N(c1ccccc1)C1CN2CCC1CC2 (centres undefined)  6.92
3  O=C(OC1CN2CCC1CC2)N(CCc1ccc(F)cc1)c1ccccc1 (racemic)  7.89
4  O=C(OCCCc1ccc(Cl)c(Cl)c1)N(c1ccccc1)C1CN2CCC1CC2 (centres undefined)  6.52
5  Cc1ccc(COC(=O)N(c2ccccc2)C2CN3CCC2CC3)cc1F (centres undefined)  7.52
6  COc1ccc(CCN(C(=O)OC2CN3CCC2CC3)c2ccccc2)cc1 (racemic)  6.89
7  COc1ccc(COC(=O)N(c2ccccc2)C2CN3CCC2CC3)cc1F (centres undefined)  7.00
8  O=C(OCc1ccc2c(c1)OCO2)N(c1ccccc1)C1CN2CCC1CC2 (centres undefined)  7.52
